Please respond with reported recombinant UMI read abundance (log10) for every item in the list.
test: recombinant UMI read abundance after kanamycin selection (control-corrected) (log10(CPM+1)); higher = more efficient recombination; extreme values may be limits of the assay; sequences stand for … in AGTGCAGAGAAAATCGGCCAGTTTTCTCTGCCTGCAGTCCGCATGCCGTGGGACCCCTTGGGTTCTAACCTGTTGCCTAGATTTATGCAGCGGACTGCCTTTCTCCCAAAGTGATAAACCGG…AGGTTGGTTTCACT; site = the 11-nt donor;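 also: IS621 bridge recombinase in Escherichia coli cells against a fixed T5 target plasmid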
Answers are plain numbers.

Use the examples below as a reference point.
>>> value_measured("CTACTAACATGGACCGGTTTTCCCGGTAATCCGTATTTGGA (site CTACTAGCTTC)")
0.689
>>> value_measured("ATCCAGGCATGGACCGGTTTTCCCGGTAATCCGTATTTGCC (site ATCCAGGCTGG)")
0
>>> value_measured("CGTGACTCATGGACCGGTTTTCCCGGTAATCCGTATTTGCG (site CGTGACTCTCG)")
2.74
>>> value_measured("ACCTAGACATGGACCGGTTTTCCCGGTAATCCGTATTTGGG (site ACCTAGACTGC)")
0.00778
>>> value_measured("ATCTACACATGGACCGGTTTTCCCGGTAATCCGTATTTGAC (site ATCTATACTGT)")
0.824

Parameters: items (list). Returns: recombinant UMI read abundance (log10) for each item.
1. AGTAGCCCATGGACCGGTTTTCCCGGTAATCCGTATTTGGA (site AGTAGCCCTTC)
2. GACTTGGCATGGACCGGTTTTCCCGGTAATCCGTATTTGGA (site GACTTGGCTTC)
3. GCTTGCGCATGGACCGGTTTTCCCGGTAATCCGTATTTGAT (site GCTTGCCCTAT)
4. AGCCTAGCATGGACCGGTTTTCCCGGTAATCCGTATTTGTT (site AGCCAAGCTAA)
5. CGCCGTACATGGACCGGTTTTCCCGGTAATCCGTATTTGCA (site CGCCGTACTAG)
6. CAGACGGCATGGACCGGTTTTCCCGGTAATCCGTATTTGGG (site CAGACGGCTCC)

1. 0.01
2. 0.654
3. 0.00863
4. 0.0196
5. 0.00535
6. 0.191

Parameters: items (list). Returns: recombinant UMI read abundance (log10) for each item.
1. GAAGCTTCATGGACCGGTTTTCCCGGTAATCCGTATTTGTT (site GAAGCTTCTAA)
2. CTACTCACATGGACCGGTTTTCCCGGTAATCCGTATTTGGA (site CTACTCACTTC)
3. GGGCAGACATGGACCGGTTTTCCCGGTAATCCGTATTTGCA (site GGGCAGACTTG)
4. GCAGGAGCATGGACCGGTTTTCCCGGTAATCCGTATTTGGA (site GCAGGAGCTTC)

1: 1.74; 2: 2.16; 3: 2.58; 4: 1.41

Parameters: items (list). Returns: recombinant UMI read abundance (log10) for each item.
1. AGCCTTTCATGGACCGGTTTTCCCGGTAATCCGTATTTGAC (site AGCCTTTCTGG)
2. ACGTACACATGGACCGGTTTTCCCGGTAATCCGTATTTGCA (site ACGTACACTTG)

0
2.71

---

Please respond with reported recombinant UMI read abundance (log10) for every item in the list.
experiment: recombinant UMI read abundance after kanamycin selection (control-corrected) (log10(CPM+1)); higher = more efficient recombination; extreme values may be limits of the assay; sequences stand for … in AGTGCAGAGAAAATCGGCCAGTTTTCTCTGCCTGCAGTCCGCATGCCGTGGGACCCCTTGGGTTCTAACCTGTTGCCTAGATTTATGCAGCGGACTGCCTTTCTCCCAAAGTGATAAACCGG…AGGTTGGTTTCACT; site = the 11-nt donor
Answers are plain numbers.

>>> value_measured("ACTTGAACATGGACCGGTTTTCCCGGTAATCCGTATTTGAG (site ACTAGAACTCT)")
0.0666

Parameters: items (list). Returns: recombinant UMI read abundance (log10) for each item.
1. AGGACTACATGGACCGGTTTTCCCGGTAATCCGTATTTGAC (site AGGATTACTGT)
2. CGTCAGACATGGACCGGTTTTCCCGGTAATCCGTATTTGAG (site CGTCAGACTCT)
3. GAACATACATGGACCGGTTTTCCCGGTAATCCGTATTTGGG (site GAACATACTCC)

0.471
1.16
0.24

Parameters: items (list). Returns: recombinant UMI read abundance (log10) for each item.
1. CGTAGCGCATGGACCGGTTTTCCCGGTAATCCGTATTTGTT (site CGTAGCGCTAA)
2. TAAAGCCCATGGACCGGTTTTCCCGGTAATCCGTATTTGTA (site TAAAGTCCTTA)

1. 1.05
2. 0.0272
